- TEST SYSTEM: human serum albumin (HSA) (Homo sapiens, UniProt P02768)
- Sequence (P02768 25-609): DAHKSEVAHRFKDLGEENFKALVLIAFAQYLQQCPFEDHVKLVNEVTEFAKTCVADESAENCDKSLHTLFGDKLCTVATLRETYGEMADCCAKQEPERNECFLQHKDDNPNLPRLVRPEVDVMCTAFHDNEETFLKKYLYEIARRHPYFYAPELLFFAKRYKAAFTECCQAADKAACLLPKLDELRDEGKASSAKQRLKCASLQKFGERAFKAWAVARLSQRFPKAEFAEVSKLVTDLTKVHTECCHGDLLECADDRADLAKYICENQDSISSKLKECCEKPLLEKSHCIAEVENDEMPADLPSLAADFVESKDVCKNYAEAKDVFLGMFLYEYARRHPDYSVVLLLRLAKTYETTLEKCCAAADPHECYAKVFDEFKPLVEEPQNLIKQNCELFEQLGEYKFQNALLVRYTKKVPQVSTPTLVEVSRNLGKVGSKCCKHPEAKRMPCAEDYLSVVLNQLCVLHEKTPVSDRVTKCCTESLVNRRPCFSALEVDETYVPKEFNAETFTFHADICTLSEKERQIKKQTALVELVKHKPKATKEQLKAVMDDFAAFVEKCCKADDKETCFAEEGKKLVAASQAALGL
- MEASUREMENT NOTES: biochemical
Assignment: determine reported pIC50 for the given molecules.
Answers are plain numbers, as −log10 of the molar value.

Reference set, count: 5
INSERT INTO assay_data (molecule, value_measured) VALUES
  ('COc1cc2nc(N3CCN(C(=O)OCc4ccccc4)C(C(=O)NC(C)(C)C)C3)nc(N)c2cc1OC [L-765,314]', 4.15),
  ('CCCC(=O)NCCc1c2n(c3ccc(OC)cc13)CCCc1ccccc1-2 [K 185]', 4.25),
  ('OCc1ccc(-c2nn(Cc3ccccc3)c3ccccc23)o1 [YC-1]', 4.35),
  ('OCCN(CCO)c1nc(N2CCCCC2)c2nc(N(CCO)CCO)nc(N3CCCCC3)c2n1 [Dipyridamole, dipyridamole]', 4.40),
  ('Nc1ccc2c3c(cccc13)C(=O)NC2=O [4-Amino-1,8-naphthalimide, 4-amino-1,8-naphthalimide]', 5.10);

Report pIC50 for each item below.
1. CN(C)c1cc2c(Nc3ccc4c(cnn4Cc4ccccc4)c3)ncnc2cn1 [GW2974]
2. Nc1nc(N)c2nc(CNc3ccc(C(=O)N[C@@H](CCC(=O)O)C(=O)O)cc3)cnc2n1 [Aminopterin, aminopterin]

1: 5.10; 2: 5.05

###

- TEST SYSTEM: α1-acid glycoprotein (AGP) (Homo sapiens, UniProt P02763)
- Sequence (P02763 19-201): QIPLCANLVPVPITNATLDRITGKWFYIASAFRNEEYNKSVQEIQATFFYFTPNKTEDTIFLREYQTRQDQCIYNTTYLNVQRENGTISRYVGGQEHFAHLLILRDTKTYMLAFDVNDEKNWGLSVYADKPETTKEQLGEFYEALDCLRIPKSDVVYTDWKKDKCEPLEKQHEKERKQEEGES
- MEASUREMENT NOTES: biochemical
VALUE TYPE: pIC50
Give bare numbers, as −log10 of the molar value.

INSERT INTO assay_data (compound, value_type, value_measured) VALUES
  ('CCCCC1C(=O)N(c2ccccc2)N(c2ccccc2)C1=O', 'pIC50', 2.98),
  ('CN(C)CCC=C1c2ccccc2CCc2ccccc21', 'pIC50', 3.66);

Moving on to another compound below.
Which value of pIC50 has been reported for C=CCc1ccccc1OCC(O)CNC(C)C (stereo not drawn) in the records?
3.56

###

- TEST SYSTEM: α1-acid glycoprotein (AGP) (Homo sapiens, UniProt P02763)
- MEASUREMENT NOTES: in vitro
- PROTOCOL CONDITIONS: human
Assignment: determine reported Kd at 2 min, 50 µM for the given compounds.
One number for each entry, in µM.

INSERT INTO measurements (compound, unit_of_measure, value_measured) VALUES
  ('CN(C)CCC=C1c2ccccc2CCc2ccccc21', 'µM', 1.89),
  ('CN(C)CCCN1c2ccccc2CCc2ccccc21', 'µM', 10.4),
  ('COc1ccc2c(c1)c(CC(=O)O)c(C)n2C(=O)c1ccc(Cl)cc1', 'µM', 78.8),
  ('CC(C)NCC(O)COc1cccc2ccccc12 (stereo not shown)', 'µM', 19.2);

Report Kd at 2 min, 50 µM for each item below.
1. CCCCC1C(=O)N(c2ccccc2)N(c2ccccc2)C1=O
2. C=CCc1ccccc1OCC(O)CNC(C)C (stereo not shown)
3. CN(C)CCCN1c2ccccc2Sc2ccc(Cl)cc21

1: 247; 2: 33.8; 3: 7.68
